Where these numbers come from: PubChem BioAssay AID2060483

Here, each record is paired with measured viability, T/C data.
# Tested on: K24384-001-R-PDC complex spheroids, viability;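 also: spheroids exposed to compounds for seven days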
# TEST: Anticancer human tumor K24384-001-R-PDC patient-derived pancreatic adenocarcinoma cell line growth inhibition [GQUAD]
# EXPERIMENTAL_CONTEXT: second compound 1 µM; first compound 0.00999 µM; stronger effect = lower value

Use the examples below as a reference point.
CC[C@@]1(O)C(=O)OCc2c1cc1n(c2=O)Cc2cc3c(CN(C)C)c(O)ccc3nc2-1 + Cc1[nH]c2ccc(F)cc2c1-c1nc2c3cccnc3c3ncccc3c2[nH]1
98.8%
Cn1ncnc1[C@H]1c2n[nH]c(=O)c3cc(F)cc(c23)N[C@@H]1c1ccc(F)cc1 + Cc1[nH]c2ccc(F)cc2c1-c1nc2c3cccnc3c3ncccc3c2[nH]1
95.3%

Could you now look at the following compound, please?
Supply measured viability, T/C of CCc1c2c(nc3ccc(O)cc13)-c1cc3c(c(=O)n1C2)COC(=O)[C@]3(O)CC + Cc1[nH]c2ccc(F)cc2c1-c1nc2c3cccnc3c3ncccc3c2[nH]1 in your reply.
51.5%
